Here, each record is paired with measured EC50 data.
# Test system: NS5A chimeric genotype 1b Con1 replicon with genotype 3a S52 strain NS5A gene
# EXPERIMENT SUMMARY: Replicon assay, genotype 3a NS5A chimera
# Type: cell-based, HCV
# RUN PARAMETERS: Hepatitis C virus, read-out: 3a (s), (s); activity range

[[record]]
chemical_smiles = "CC[C@H]1CC[C@@H](c2nc3ccc4cc5c(cc4c3[nH]2)OCc2cc(-c3cnc([C@@H]4C[C@@H]6CCC[C@@H]6N4C(=O)[C@@H](NC(=O)OC)[C@@H](C)CC)[nH]3)ccc2-5)N1C(=O)[C@@H](NC(=O)OC)C1CCOCC1"
result = "0.1 to 0.999 nM"

[[record]]
chemical_smiles = "COC(=O)N[C@H](C(=O)N1[C@@H](C)CC[C@H]1c1nc(C)c(-c2ccc3c(c2)COc2cc4c(ccc5nc([C@@H]6CC[C@H](C)N6C(=O)[C@@H](NC(=O)OC)[C@@H](C)OC)[nH]c54)cc2-3)[nH]1)[C@@H](C)OC"
result = "< 0.1 nM"

[[record]]
chemical_smiles = "CC[C@H]1CC[C@@H](c2nc3ccc4cc5c(cc4c3[nH]2)OCc2cc(-c3cnc([C@@H]4CC[C@H](C)N4C(=O)[C@@H](NC(=O)OC)C(C)C)[nH]3)ccc2-5)N1C(=O)[C@@H](NC(=O)OC)C(C)C"
result = "0.1 to 0.999 nM"


The record that follows has no EC50 shown yet.
## Task Which EC50 reading was recorded for the compound COC[C@H]1C[C@@H](c2nc3ccc4cc5c(cc4c3[nH]2)OCc2cc(-c3cnc([C@@H]4CC[C@H](C)N4C(=O)[C@@H](NC(=O)OC)C(C)C)[nH]3)ccc2-5)N(C(=O)[C@@H](NC(=O)OC)C2CCOCC2)C1 ?
## Result 0.1 to 0.999 nM

---

# Tested on: NS5A chimeric genotype 1b Con1 replicon with genotype 3a S52 strain NS5A gene
# EXPERIMENT SUMMARY: Replicon assay, genotype 3a NS5A chimera
# Type: cell-based, HCV
# RUN PARAMETERS: Hepatitis C virus, read-out: 3a (s), (s); activity range
PROPERTY LABEL: EC50

## Task Which EC50 reading was recorded for the molecule CC[C@H]1CC[C@@H](c2ncc(-c3ccc4c(c3)COc3cc5c(ccc6nc([C@@H]7C[C@H](C)CN7C(=O)[C@@H](NC(=O)OC)[C@@H](C)OC)[nH]c65)cc3-4)[nH]2)N1C(=O)[C@@H](NC(=O)OC)C(C)C ?
## Result 1 to 44 nM

## Task Now give it for COC(=O)N[C@H](C(=O)N1[C@@H](C)CC[C@H]1c1ncc(-c2ccc3c(c2)COc2cc4c(ccc5nc([C@@H]6CC[C@H](C)N6C(=O)[C@@H](NC(=O)OC)[C@H](C)O)[nH]c54)cc2-3)[nH]1)C(C)C too.
## Result < 0.1 nM

---

# Tested on: NS5A chimeric genotype 1b Con1 replicon with genotype 3a S52 strain NS5A gene
# EXPERIMENT SUMMARY: Replicon assay, genotype 3a NS5A chimera
# Assay type: cell-based, HCV
# RUN PARAMETERS: Hepatitis C virus, read-out: 3a (s) (nM), genotype 3a NS5A chimeric replicon, stable replicon cells (s)
Kindly apply the following: true (1) if EC50 is less than 0.07 nM, false (0) in every other case.

These recorded examples may help you get a feel for the data.
[[record]]
compound = "COC(=O)N[C@H](C(=O)N1[C@@H](C)CC[C@H]1c1nc2ccc3cc4c(cc3c2[nH]1)OCc1cc(-c2cnc([C@@H]3C[C@H](F)CN3C(=O)[C@@H](NC(=O)OC)C3CCOCC3)[nH]2)ccc1-4)C(C)C [HT]"
class_name = "false (0)"

[[record]]
compound = "CC[C@H]1CC[C@@H](c2nc3ccc4cc5c(cc4c3[nH]2)OCc2cc(-c3cnc([C@@H]4CC[C@H](C)N4C(=O)[C@@H](NC(=O)OC)[C@@H](C)CC)[nH]3)ccc2-5)N1C(=O)[C@@H](NC(=O)OC)C1CCOCC1 [IK]"
class_name = "false (0)"

[[record]]
compound = "CC[C@H](C)[C@H](NC(=O)OC)C(=O)N1[C@@H](C)CC[C@H]1c1ncc(-c2ccc3c(c2)COc2cc4c(ccc5nc([C@@H]6CC[C@H](C)N6C(=O)[C@@H](NC(=O)OC)C6CCOCC6)[nH]c54)cc2-3)[nH]1 [GG]"
class_name = "true (1)"

[[record]]
compound = "COC(=O)NC(C(=O)N1[C@@H](C)CC[C@H]1c1nc2ccc3cc4c(cc3c2[nH]1)OCc1cc(-c2cnc([C@@H]3CC[C@H](C)N3C(=O)[C@@H](NC(=O)OC)C3CCOCC3)[nH]2)ccc1-4)C1CCOCC1 (stereo partly drawn) [EB]"
class_name = "false (0)"


## Task Lab note: EC50 threshold 0.07 nM. Does this compound come in strictly under it? COC(=O)N[C@H](C(=O)N1C[C@@H](C)C[C@H]1c1nc2ccc3cc4c(cc3c2[nH]1)OCc1cc(-c2cnc([C@@H]3CC[C@H](C)N3C(=O)[C@@H](NC(=O)OC)[C@@H](C)OC)[nH]2)ccc1-4)C(C)C [GA]
## Result true (1)

## Task Now give it for CC[C@H](C)[C@H](NC(=O)OC)C(=O)N1[C@H](c2nc3ccc4cc5c(cc4c3[nH]2)OCc2cc(-c3cnc([C@@H]4CC[C@H](C)N4C(=O)[C@@H](NC(=O)OC)C4CCOCC4)[nH]3)ccc2-5)C[C@@H]2CCC[C@@H]21 [IO] too.
## Result false (0)

## Task Now give it for COC(=O)N[C@H](C(=O)N1C[C@@H](C)C[C@H]1c1nc2ccc3cc4c(cc3c2[nH]1)OCc1cc(-c2cnc([C@@H]3CC[C@H](C)N3C(=O)[C@@H](NC(=O)OC)[C@@H](C)OC)[nH]2)ccc1-4)[C@@H](C)OC [DY] too.
## Result false (0)

## Task Now give it for CC[C@H]1CC[C@@H](c2nc3ccc4cc5c(cc4c3[nH]2)OCc2cc(-c3cnc([C@@H]4CC[C@H](C)N4C(=O)[C@@H](NC(=O)OC)C(C)C)[nH]3)ccc2-5)N1C(=O)[C@H](NC(=O)OC)c1ccccc1 [IH] too.
## Result true (1)

## Task Now give it for CC[C@H]1CC[C@@H](c2nc3ccc4cc5c(cc4c3[nH]2)OCc2cc(-c3cnc([C@@H]4CC[C@H](C)N4C(=O)[C@@H](NC(=O)OC)C(C)C)[nH]3)ccc2-5)N1C(=O)[C@@H](NC(=O)OC)[C@@H](C)OC [EP] too.
## Result false (0)

---

# Test system: stable HCV 2a JFH-1 Rluc replicon cells (L31 present in NS5A)
# EXPERIMENT SUMMARY: Renilla luciferase HCV replicon reporter assay, genotype 2a JFH-1
# Type: cell-based
# RUN PARAMETERS: Hepatitis C virus, read-out: 2a JFH (nM), genotype 2a JFH-1 replicon (L31 in NS5A), stable cells
PROPERTY LABEL: EC50 (nM)
Write it as a number; the unit nM goes unstated.

# annotated cases, reported EC50 shown
[[record]]
molecule = "COC(=O)N[C@H](C(=O)N1[C@@H](C)CC[C@H]1c1nc2ccc3cc4c(cc3c2[nH]1)OCc1cc(-c2cnc([C@@H]3CC[C@H](C)N3C(=O)[C@@H](NC(=O)OC)[C@@H](C)O)[nH]2)ccc1-4)C(C)C [GY]"
system_under_test = "stable HCV 2a JFH-1 Rluc replicon cells (L31 present in NS5A)"
property_label = "EC50"
measured_number = 0.013

[[record]]
molecule = "COC(=O)N[C@H](C(=O)N1[C@@H](C)CC[C@H]1c1nc(C2CC2)c(-c2ccc3c(c2)COc2cc4c(ccc5nc([C@@H]6CC[C@H](C)N6C(=O)[C@@H](NC(=O)OC)[C@@H](C)OC)[nH]c54)cc2-3)[nH]1)[C@@H](C)OC [GC]"
system_under_test = "stable HCV 2a JFH-1 Rluc replicon cells (L31 present in NS5A)"
property_label = "EC50"
measured_number = 0.063

[[record]]
molecule = "COC[C@H]1C[C@@H](c2nc3ccc4cc5c(cc4c3[nH]2)OCc2cc(-c3cnc([C@@H]4CC[C@H](C)N4C(=O)[C@@H](NC(=O)OC)C(C)C)[nH]3)ccc2-5)N(C(=O)[C@@H](NC(=O)OC)C2CCOCC2)C1 [EF]"
system_under_test = "stable HCV 2a JFH-1 Rluc replicon cells (L31 present in NS5A)"
property_label = "EC50"
measured_number = 0.014


## Task Which EC50 reading was recorded for the molecule CC[C@H]1CC[C@@H](c2ncc(-c3ccc4c(c3)COc3cc5c(ccc6nc([C@@H]7CC[C@H](C)N7C(=O)[C@@H](NC(=O)OC)C7CCOCC7)[nH]c65)cc3-4)[nH]2)N1C(=O)[C@@H](NC(=O)OC)[C@@H](C)CC [IM] ?
## Result 0.016

Source of measurements: patent US10800789B2
